Entry source: patent US20230233569A1

Measured IC50 values are reported for all entries that follow.
# Tested on: AKT1/2/3 (Ser473) phosphorylation (mTORC2) in MDA-MB-468 cells
# TEST_SUMMARY: Cell based AlphaLISA assay, mTOR kinase cellular assay: inhibition of p-Akt (S473) in MDA-MB-468 cells
# RECORDED_CONDITIONS: Homo sapiens, read-out: pIC50 for Inhibition of mTORC1 and mTORC2 Substarte Phosphorylation p-AKT1/2/3-(S473) (converted)

CO[C@H]1C[C@@H]2CC[C@@H](C)[C@@](O)(O2)C(=O)C(=O)N2CCCC[C@H]2C(=O)O[C@H]([C@H](C)C[C@@H]2CC[C@@H](OC(=O)NCCOCCOCCOCCOCCC(=O)NCc3cnc(N4CCN(c5ncc(C(=O)NCCCCn6nc(-c7cnc8[nH]ccc8c7)c7c(N)ncnc76)cn5)CC4)nc3)[C@H](OC)C2)CC(=O)[C@H](C)/C=C(\C)[C@@H](O)[C@@H](OC)C(=O)[C@H](C)C[C@H](C)/C=C/C=C/C=C/1C [Example 47] | 3.16 to 31.6 nM

Kindly consider the entry below.
Quick one: IC50 of CO[C@H]1C[C@@H]2CC[C@@H](C)[C@@](O)(O2)C(=O)C(=O)N2CCCC[C@H]2C(=O)O[C@H]([C@H](C)C[C@@H]2CC[C@@H](OC(=O)NCCOCCOCCOCCOCCOCCOCCOCCOCCOCCOCCC(=O)N3CCC(n4nc(-c5cnc6[nH]ccc6c5)c5c(N)ncnc54)CC3)[C@H](OC)C2)CC(=O)[C@H](C)/C=C(\C)[C@@H](O)[C@@H](OC)C(=O)[C@H](C)C[C@H](C)/C=C/C=C/C=C/1C [Example 20] ?
≤ 3.16 nM

====

# ASSAYED_SYSTEM: KRAS G12S (Homo sapiens, UniProt P01116+P62937, G12S)
# Sequence (P01116 1-169 isoform P01116-2 G12S limits assumed): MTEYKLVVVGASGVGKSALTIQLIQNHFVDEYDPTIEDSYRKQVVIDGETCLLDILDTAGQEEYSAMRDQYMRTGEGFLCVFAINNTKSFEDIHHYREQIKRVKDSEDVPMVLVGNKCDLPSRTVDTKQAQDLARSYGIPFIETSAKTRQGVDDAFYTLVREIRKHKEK
# Sequence (P62937 whole entry): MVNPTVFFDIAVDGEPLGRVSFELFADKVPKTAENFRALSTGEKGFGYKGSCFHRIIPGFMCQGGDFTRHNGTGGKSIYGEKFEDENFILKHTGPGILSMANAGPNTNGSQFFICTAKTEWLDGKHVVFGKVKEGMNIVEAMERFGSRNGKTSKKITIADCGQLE
# TEST_SUMMARY: Disruption of BRAF RBD interaction with Ras (FRET / MOA assay, with Cyclophilin A)
# Format: biochemical
# RECORDED_CONDITIONS: read-out: KRAS G12S FRET data, IC50
EXPERIMENTAL_READOUT: IC50

These solved cases illustrate the format of a correct answer.
C=CC(=O)N1CC[C@H](C(=O)N(C)[C@H](C(=O)N[C@H]2Cc3cc(cc(O)c3F)-c3ccc4c(c3)c(c(-c3ccccc3CCOC)n4CC)CC(C)(C)COC(=O)[C@@H]3CCCN(N3)C2=O)C(C)C)C1 | > 10000 nM
CCn1c(-c2cccnc2[C@H](C)OC)c2c3cc(ccc31)-c1cc(O)cc(c1)C[C@H](NC(=O)[C@H](C(C)C)N(C)C(=O)C1CC3CC1CN3)C(=O)N1CCC[C@H](N1)C(=O)OCC(C)(C)C2 (some centres unmarked) | 100 to 1000 nM
CCn1c(-c2cc(N3CCN(C)CC3)cnc2[C@H](C)OC)c2c3cc(ccc31)-c1csc(n1)C[C@H](NC(=O)[C@H](C(C)C)N(C)C(=O)N(C)C)C(=O)N1CCC[C@H](N1)C(=O)OCC(C)(C)C2 (atropisomer, axis not shown) | 10 to 100 nM
CCn1c(-c2cccnc2[C@H](C)OC)c2c3cc(ccc31)-c1csc(n1)C[C@H](NC(=O)[C@H](C(C)C)N(C)C(=O)O[C@H]1CCOC1)C(=O)N1CCC[C@H](N1)C(=O)OCC(C)(C)C2 | 1000 to 10000 nM

Now consider a different molecule.
Returns the measured IC50 for the input molecule. Input: CCn1c(-c2cccnc2[C@H](C)OC)c2c3cc(ccc31)-c1cc(O)cc(c1)C[C@H](NC(=O)[C@H](C(C)C)N(C)C(=O)C1CNC1)C(=O)N1CCC[C@H](N1)C(=O)OCC(C)(C)C2
10 to 100 nM
